All figures here come from PubChem BioAssay (NCI).

test: NCI Yeast Anticancer Drug Screen. Data for the mec2-1 strain (AID 157); details: S. cerevisiae mec2-1 strain, at 50.0 µM, active compounds read high
This is part of a sample that, as a whole, favours compounds with a hit. Of some 79,000 tested, about 15% had one in any assay. *1 amine or outer side, *2 acyl side, *3 side chain or, on linkers, in order; H or OH if unused. Where a SMILES comes first, the peptide text is derived from it. Bridges are numbered along the chain shown (N, C = ends). Roman numbers before positions name the chains, in order. [ ]: non-standard residue; d: D form. Actinocin(1to9) = Cc1c2oc3c(C)ccc(C(=O)[*:2])c3nc-2c(C(=O)[*:1])c(N)c1=O; NMeV = CN[CH](C(=O)O)C(C)C; Aze = O=C(O)[CH]1CCN1; Sar = CNCC(=O)O
ENDPOINT: growth inhibition (%)
Numbers only, in %.

Take a look at these entries with their results.
So for "O=CNCO" , the logged growth inhibition turned out to be 14.2

So for Cc1cc(C)c(C#N)c(SC(C(=O)Nc2cc(C(F)(F)F)ccc2Cl)c2ccccc2)n1 (centres undefined) , the logged growth inhibition turned out to be -13.2

So for CC(=O)OCC1OC(n2c(-c3ccccc3)c(N=Nc3ccccc3)c(C)c(C#N)c2=S)C(OC(C)=O)C(OC(C)=O)C1OC(C)=O (centres undefined) , the logged growth inhibition turned out to be -17.4

So for CC(O)(C(=O)O)c1ccccc1O (centres undefined) , the logged growth inhibition turned out to be 1.7

So for "Cc1n[nH]c(=O)n1-n1cccc1" , the logged growth inhibition turned out to be -5.35

So for "COC(=O)c1nc(N)[nH]c(=O)c1CCCCCc1c(C(=O)OC)nc(N)[nH]c1=O" , the logged growth inhibition turned out to be -0.15

Could I get growth inhibition for every one of these entries?
1. CC(=O)N1CC(C)(C)c2c1cc(C)c(O)c2C
2. ClC(c1ccccc1)c1cccc2ccccc12 (centres undefined)
3. C/C(=N\N)c1cnc(N)nc1C
4. CN(C)CCC(=O)c1cccc(O)c1
5. C#CCC1(C(=O)OCC)C(=O)c2ccccc2N(C)C1=O (centres undefined)

Reply:
1: -47.9; 2: -2.45; 3: 5.4; 4: -19; 5: 1.55

Could I get growth inhibition for every one of these entries?
1. CNC(=O)OCc1c(COC(=O)NC)c(C)n(-c2ccc(F)cc2)c1C
2. COc1cccc(C2C(C(=O)O)=C(CO)Oc3cc4c(cc32)OCO4)c1 (centres undefined)

Reply:
14.8
15.8

Could I get growth inhibition for every one of these entries?
1. S=C1NC(c2ccccc2)Nc2ccccc21 (centres undefined)
2. COC1(c2ccccc2)N=C(c2ccc([N+](=O)[O-])cc2)OC1(C)C (centres undefined)
3. CCCCCn1c(=O)c2cc3c(=O)n(CCCCC)c(=O)c3cc2c1=O
4. CCOC(=O)C(C)C(CCC#N)(C(=O)OCC)C(=O)OCC (centres undefined)
5. COCCC(N)C(=O)O (centres undefined)

Reply:
15.9
1.7
7.3
-24.1
-13.3

Could I get growth inhibition for every one of these entries?
1. N#CCC(=O)NCc1ccncc1
2. CCCCCCCCCC1(C(=O)OCC)OC1(C)C (centres undefined)
3. O=C(CNS(=O)(=O)c1ccccc1)c1ccc(Cl)cc1Cl

Reply:
1: -50.4; 2: -15.8; 3: 36.2

Could I get growth inhibition for every one of these entries?
1. CC(=O)OC1CCC2(C)OC(=O)CC2C1 (centres undefined)
2. NC(=O)C(CCN1CCCCC1)c1ccccc1 (centres undefined)
3. CCC1(CCC#N)CCC(N)=CC1=O (centres undefined)

Reply:
[8.55, -7.35, 17.3]

Could I get growth inhibition for every one of these entries?
1. COc1ccc2nc(CC(C)C)c3c(c2c1)-c1ccccc1C3=O
2. c1ccc(C2(c3ccccc3)c3ccccc3-c3ccccc32)cc1
3. Cc1c2oc3c(C)ccc(C(=O)NC4C(=O)NC(C(C)C)C(=O)N5CCCC5C(=O)N(C)CC(=O)N(C)C(C(C)C)C(=O)OC4C)c3nc-2c(C(=O)NC2C(=O)NC(C(C)C)C(=O)N3CCC3C(=O)N(C)CC(=O)N(C)C(C(C)C)C(=O)OC2C)c(N)c1=O (centres undefined) (I: TV[Aze][Sar][NMeV] / II: TVP[Sar][NMeV]; ester I:1-I:C, II:1-II:C; linker I:N-II:N via Actinocin(1to9); configuration not given here)
4. COc1ccc(Nc2nc(NS(=O)(=O)c3cc(C)c(Cl)cc3S)n[nH]2)cc1

Reply:
[-8.8, 17.4, 92.2, 27.9]

Could I get growth inhibition for every one of these entries?
1. COC(=O)CCC1=C(C)C2=NC1=CC1=NC(=CC3=NC(=Cc4[nH]c(/c(=C\O)c4C)=C2)C(C=O)=C3C)C(C)=C1CCC(=O)OC
2. CC(=O)C1=C(O)C(CSCc2ccccc2)NC1=O (centres undefined)
3. CC(/C=C/C(=O)c1ccccc1)=C\C=N\N(C)c1ccccc1
4. Oc1ccc(NCc2ccccc2)cc1
5. Cc1ccc(N=NC(C2=NC(=O)CS2)c2nc3ccccc3[nH]2)cc1 (centres undefined)
6. O=C1c2cccc3cc([N+](=O)[O-])cc(c23)C(=O)N1Cc1cccnc1

Reply:
1: 16.5; 2: 0.65; 3: 2.8; 4: 8.45; 5: -31; 6: 15.6

Could I get growth inhibition for every one of these entries?
1. COCCCNc1ccc([N+](=O)[O-])cn1
2. CCCNC(=O)Cn1c(C)cc2ccccc21
3. O=C1c2ccccc2-c2ccc3c4ccc5c6c(ccc(c7ccc1c2c73)c64)-c1ccccc1C5=O

Reply:
-40.6
6.25
-5.4
